tested on: Raji; test: Inhibition of 12-O-tetradecanoylphorbol-13-acetate-induced EBV-early antigen activation in human Raji cells at 10 molar ratio after 48 hrs relative to TPA; type: cell-based; design: scale not given: the % may be the effect or the level left; conditions: human gammaherpesvirus 4

Compound	Activity
COC(=O)[C@H]1O[C@@H](O[C@H]2CC[C@@]3(C)[C@@H](CC[C@]4(C)[C@@H]3CC=C3[C@@H]5CC(C)(C)CC(=O)[C@]5(C)CC[C@]34C)[C@@]2(C)CO)[C@H](O[C@@H]2OC[C@@H](O)[C@H](O)[C@H]2O[C@@H]2O[C@@H](C)[C@H](O)[C@@H](O)[C@H]2O)[C@@H](O)[C@@H]1O [WISTARIASAPONIN D]	92.8%
COC(=O)[C@H]1O[C@@H](O[C@H]2CC[C@@]3(C)[C@@H](CC[C@]4(C)[C@@H]3CC=C3[C@@H]5C[C@@](C)(C(=O)OC)C[C@@H](OC(C)=O)[C@]5(C)CC[C@]34C)[C@@]2(C)CO)[C@H](O[C@@H]2OC[C@@H](O)[C@H](O)[C@H]2O[C@@H]2O[C@@H](C)[C@H](O)[C@@H](O)[C@H]2O)[C@@H](O)[C@@H]1O [WISTARIASAPONIN G]	79.7%
CC1(C)CC(=O)[C@]2(C)CC[C@]3(C)C(=CC[C@@H]4[C@@]5(C)CC[C@H](O)[C@](C)(CO)[C@@H]5CC[C@]43C)[C@@H]2C1 [SOYASAPOGENOL E]	89.5%
COC(=O)[C@H]1O[C@@H](O[C@H]2CC[C@@]3(C)[C@@H](CC[C@]4(C)[C@@H]3CC=C3[C@@H]5CC(C)(C)CC(=O)[C@]5(C)CC[C@]34C)[C@@]2(C)CO)[C@H](O[C@@H]2O[C@H](CO)[C@H](O)[C@H](O)[C@H]2O[C@@H]2O[C@@H](C)[C@H](O)[C@@H](O)[C@H]2O)[C@@H](O)[C@@H]1O [DEHYDROSOYASAPONIN I]	100%
